The values you see were collected from paper PMC10674987.

experiment: Cell viability assay (MTT) on Caco-2 cells; format: cell-based, human; settings: human, Caco-2 cells, 100 µM, 2 h + 24 h fresh medium
observable: viability at 100 µM

1. Cc1nc(Nc2ncc(C(=O)Nc3c(C)cccc3Cl)s2)cc(N2CCN(CCO)CC2)n1 [Dasatinib, dasatinib, reference compound]    70 to 80%

----------
assay: Bidirectional permeability in Caco-2 cells in absence and presence of SCE; format: in vitro ADME, human; settings: human, Caco-2, +SCE [1 mg/mL]; 10 µM compound; apical to basolateral
This listing pairs compounds with measured Papp A→B at 2 h, 10 µM.
observable: Papp A→B at 2 h, 10 µM (×10⁻⁶ cm/s)

1) Oc1ccc(Cl)c(Nc2ncnc3c2cnn3CC(Cl)c2ccccc2)c1 (stereo not drawn)    16.3
2) CSc1nc(NCCc2ccccc2)c2cnn(CC(Cl)c3ccccc3)c2n1 (stereo not drawn)    0.224
3) CC(Cn1ncc2c(Nc3cc(O)ccc3Cl)nc(NCCO)nc21)c1ccccc1 (stereo not drawn)    14.9
4) CC(Cn1ncc2c(Nc3cccc(O)c3)nc(NCCO)nc21)c1ccccc1 (stereo not drawn)    16.9
5) Fc1ccc(C(Cl)Cn2ncc3c(NCc4ccccc4)ncnc32)cc1 (stereo not drawn)    16.2
6) CC(Cn1ncc2c(Nc3cc(O)ccc3Cl)nc(SCCN3CCOCC3)nc21)c1ccccc1 (stereo not drawn)    1.54
7) Cc1nc(Nc2ncc(C(=O)Nc3c(C)cccc3Cl)s2)cc(N2CCN(CCO)CC2)n1 [Dasatinib, dasatinib, reference compound]    2.41
8) Oc1ccc(Cl)c(Nc2nc(SCCN3CCOCC3)nc3c2cnn3/C=C/c2ccccc2)c1    1.17
9) CC(C)NCC(O)COc1cccc2ccccc12 (stereo not drawn) [Propranolol, propranolol, reference compound]    93.1

----------
test: Bidirectional permeability in Caco-2 cells in absence and presence of SCE; type: in vitro ADME, human; details: human, Caco-2, +SCE [1 mg/mL]; 10 µM compound; read-out: Efflux ratio (ER) (Papp B-A/Papp A-B)
Returns: string. Value is true if measured efflux ratio at 2 h, 10 µM is below 3, and false if it is greater than or equal to it.

1. CC(Cn1ncc2c(Nc3cccc(O)c3)nc(NCCO)nc21)c1ccccc1 (stereo not drawn) [Cpd 4]    false
2. CC(Cn1ncc2c(Nc3cc(O)ccc3Cl)nc(SCCN3CCOCC3)nc21)c1ccccc1 (stereo not drawn) [Cpd 5]    false
3. Oc1ccc(Cl)c(Nc2nc(SCCN3CCOCC3)nc3c2cnn3/C=C/c2ccccc2)c1 [Cpd 7]    true
4. Cc1nc(Nc2ncc(C(=O)Nc3c(C)cccc3Cl)s2)cc(N2CCN(CCO)CC2)n1 [Dasatinib, dasatinib, reference compound]    false
5. CSc1nc(NCCc2ccccc2)c2cnn(CC(Cl)c3ccccc3)c2n1 (stereo not drawn) [Cpd 2]    false
6. CC(Cn1ncc2c(Nc3cc(O)ccc3Cl)nc(NCCO)nc21)c1ccccc1 (stereo not drawn) [Cpd 6]    false
7. Fc1ccc(C(Cl)Cn2ncc3c(NCc4ccccc4)ncnc32)cc1 (stereo not drawn) [Cpd 1]    true
8. Oc1ccc(Cl)c(Nc2ncnc3c2cnn3CC(Cl)c2ccccc2)c1 (stereo not drawn) [Cpd 3]    true
9. CC(C)NCC(O)COc1cccc2ccccc12 (stereo not drawn) [Propranolol, propranolol, reference compound]    true

----------
assay: Cell viability assay (MTT) on Caco-2 cells; type: cell-based, human; conditions: human, Caco-2 cells, 10 µM, 2 h + 24 h fresh medium
observable: viability at 10 µM

1) Cc1nc(Nc2ncc(C(=O)Nc3c(C)cccc3Cl)s2)cc(N2CCN(CCO)CC2)n1 [Dasatinib, dasatinib, reference compound]    90 to 100%

----------
assay: Bidirectional permeability in Caco-2 cells in absence and presence of SCE; type: in vitro ADME, human; details: human, Caco-2, +SCE [1 mg/mL]; 10 µM compound; basolateral to apical
Class key for Papp B→A at 2 h, 10 µM values: lower segment = under 6 ×10⁻⁶ cm/s, middle segment = from 6 ×10⁻⁶ cm/s up to 40 ×10⁻⁶ cm/s, upper segment = 40 ×10⁻⁶ cm/s and over

1) CC(C)NCC(O)COc1cccc2ccccc12 (stereo not drawn) [Propranolol, propranolol, reference compound]    middle segment
2) Cc1nc(Nc2ncc(C(=O)Nc3c(C)cccc3Cl)s2)cc(N2CCN(CCO)CC2)n1 [Dasatinib, dasatinib, reference compound]    middle segment
3) CSc1nc(NCCc2ccccc2)c2cnn(CC(Cl)c3ccccc3)c2n1 (stereo not drawn)    lower segment
4) Fc1ccc(C(Cl)Cn2ncc3c(NCc4ccccc4)ncnc32)cc1 (stereo not drawn)    middle segment
5) CC(Cn1ncc2c(Nc3cc(O)ccc3Cl)nc(NCCO)nc21)c1ccccc1 (stereo not drawn)    upper segment
6) CC(Cn1ncc2c(Nc3cccc(O)c3)nc(NCCO)nc21)c1ccccc1 (stereo not drawn)    upper segment
7) Oc1ccc(Cl)c(Nc2nc(SCCN3CCOCC3)nc3c2cnn3/C=C/c2ccccc2)c1    lower segment
8) Oc1ccc(Cl)c(Nc2ncnc3c2cnn3CC(Cl)c2ccccc2)c1 (stereo not drawn)    middle segment

----------
Assay: Bidirectional permeability in Caco-2 cells in absence and presence of SCE
Type: in vitro ADME, human
Conditions: human, Caco-2, Free; 10 µM compound; apical to basolateral
Method: Caco-2 cells were seeded at a density of 2 × 10^4 on Transwell supports (0.4 µm pore polycarbonate membrane, 6.5 mm) and incubated overnight in a controlled atmosphere of 37 °C and 5% of CO2. The following day, the medium was changed to remove floating cells and fresh pre-warmed DMEM 20% was added (300 µL in the apical compartment and 1200 µL in the basal one). […]
# cutoff 3 ×10⁻⁶ cm/s applies to Papp A→B at 2 h, 10 µM; >= gives y, < gives n

1) CC(C)NCC(O)COc1cccc2ccccc12 (centres unmarked) [Propranolol, propranolol, reference compound]    y
2) CC(Cn1ncc2c(Nc3cc(O)ccc3Cl)nc(NCCO)nc21)c1ccccc1 (centres unmarked)    y
3) Oc1ccc(Cl)c(Nc2nc(SCCN3CCOCC3)nc3c2cnn3/C=C/c2ccccc2)c1    n
4) Oc1ccc(Cl)c(Nc2ncnc3c2cnn3CC(Cl)c2ccccc2)c1 (centres unmarked)    n
5) CC(Cn1ncc2c(Nc3cc(O)ccc3Cl)nc(SCCN3CCOCC3)nc21)c1ccccc1 (centres unmarked)    n
6) Fc1ccc(C(Cl)Cn2ncc3c(NCc4ccccc4)ncnc32)cc1 (centres unmarked)    y
7) CC(Cn1ncc2c(Nc3cccc(O)c3)nc(NCCO)nc21)c1ccccc1 (centres unmarked)    y
8) Cc1nc(Nc2ncc(C(=O)Nc3c(C)cccc3Cl)s2)cc(N2CCN(CCO)CC2)n1 [Dasatinib, dasatinib, reference compound]    n

----------
system: Caco-2 monolayer; assay: Bidirectional permeability in Caco-2 cells in absence and presence of SCE; type: in vitro ADME, human; conditions: +SCE 1 mg/mL vs Free
observable: Change of Papp B-A in presence of SCE vs Free

1) CSc1nc(NCCc2ccccc2)c2cnn(CC(Cl)c3ccccc3)c2n1 (stereo not drawn) [Cpd 2]    significant reduction
2) CC(Cn1ncc2c(Nc3cc(O)ccc3Cl)nc(SCCN3CCOCC3)nc21)c1ccccc1 (stereo not drawn) [Cpd 5]    significant reduction

----------
test: Bidirectional permeability in Caco-2 cells in absence and presence of SCE; type: in vitro ADME, human; conditions: human, Caco-2, Free; 10 µM compound; read-out: Efflux ratio (ER) (Papp B-A/Papp A-B)
observable: efflux ratio at 2 h, 10 µM

1) CC(Cn1ncc2c(Nc3cccc(O)c3)nc(NCCO)nc21)c1ccccc1 (stereo not shown)    6.77
2) CC(Cn1ncc2c(Nc3cc(O)ccc3Cl)nc(NCCO)nc21)c1ccccc1 (stereo not shown)    5.71

----------
tested on: Caco-2 monolayer; assay: Bidirectional permeability in Caco-2 cells in absence and presence of SCE; assay type: in vitro ADME, human; conditions: +SCE 1 mg/mL vs Free
observable: Change of Papp A-B in presence of SCE vs Free

1. Oc1ccc(Cl)c(Nc2ncnc3c2cnn3CC(Cl)c2ccccc2)c1 (centres unmarked)    ~10 fold

----------
Listing: Papp B→A at 2 h, 10 µM of selected compounds
test: Bidirectional permeability in Caco-2 cells in absence and presence of SCE; type: in vitro ADME, human; details: human, Caco-2, Free; 10 µM compound; basolateral to apical
observable: Papp B→A at 2 h, 10 µM (×10⁻⁶ cm/s)

1) Oc1ccc(Cl)c(Nc2ncnc3c2cnn3CC(Cl)c2ccccc2)c1 (stereo not shown)    4.74
2) Oc1ccc(Cl)c(Nc2nc(SCCN3CCOCC3)nc3c2cnn3/C=C/c2ccccc2)c1    0.229
3) CC(C)NCC(O)COc1cccc2ccccc12 (stereo not shown) [Propranolol, propranolol, reference compound]    33.6
4) Cc1nc(Nc2ncc(C(=O)Nc3c(C)cccc3Cl)s2)cc(N2CCN(CCO)CC2)n1 [Dasatinib, dasatinib, reference compound]    36.9
5) CC(Cn1ncc2c(Nc3cc(O)ccc3Cl)nc(SCCN3CCOCC3)nc21)c1ccccc1 (stereo not shown)    8.04
6) CSc1nc(NCCc2ccccc2)c2cnn(CC(Cl)c3ccccc3)c2n1 (stereo not shown)    10.4
7) Fc1ccc(C(Cl)Cn2ncc3c(NCc4ccccc4)ncnc32)cc1 (stereo not shown)    15.1
